Molecular target: T1, human FSTL1 (construct not stated) (human, UniProt Q12841 21-308)
T1 construct: also called human FSTL1 antigen; FSTL1 (R&D Systems, Inc. Cat#1694-FN-050)
T1 sequence: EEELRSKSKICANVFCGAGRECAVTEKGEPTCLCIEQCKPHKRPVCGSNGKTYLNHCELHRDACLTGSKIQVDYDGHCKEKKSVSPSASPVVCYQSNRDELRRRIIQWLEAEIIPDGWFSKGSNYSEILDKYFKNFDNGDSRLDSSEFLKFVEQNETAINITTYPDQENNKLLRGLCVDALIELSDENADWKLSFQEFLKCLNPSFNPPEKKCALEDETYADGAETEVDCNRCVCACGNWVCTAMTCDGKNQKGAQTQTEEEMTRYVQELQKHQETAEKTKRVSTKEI
Assay: SPR (Biacore T-200), captured antibody, human FSTL1 10 µg/ml
observedProperty: Binding amount (RU)
Answer with a number only, understood to be in RU.

[
  {
    "binder": "anti-FSTL1 antibody clone #10 (chicken-mouse chimeric antibody) (antibody, mouse IgG1, kappa, V domains shown) VH: AVTLDESGGGLQTPGGALSLVCKASGFFFFRIYDMGWVRQAPGKGLEWVAGIDDYGRYTGYGSAVKGRATISRDNGQSTVRLQLNNLRAEDTGTYYCARGAGTGCNSAGCGAYAGSIDAWGHGTEVIVSS VL: ASTQPSSVSANPGETVKLTCSGGGSRYGWYQQKSPGSAPVTVIYYNDKRPSDIPSRFSGSKSGSTATLTITGVQAEDEAVYFCGGYDGSRDAGIFGAGTTLTVLG",
    "value": 11.7
  }
]

stdin: Using the record for anti-FSTL1 antibody clone #5-10 (chicken-mouse chimeric antibody) (antibody, mouse IgG1, V domains shown) VH: AVTLDESGGGLQTPGGGLSLVCKGSGFTLSSFNMFWVRQAPGKGLEWVAGVGKDGGTTYGAAVDGRATISRDSGQSTVRLQLNDLRAEDTGTYFCAKAAGGCSYSWCGAYVGDLDAWGHGTEVIVSS VL: ASTQPSSVSANPGETVKITCSGGGSYVGSYYYGWYQQKSPGSAPVTVIYNNNQRPSDIPSRFSGSKSGSTATLTITGVQAEDEAVYFCGGYDSSAGGIFGAGTTLTVLG , report its Binding amount (RU).
stdout: 9.8

stdin: Queued: anti-FSTL1 antibody clone #5-3 (chicken-mouse chimeric antibody) (antibody, mouse IgG1, kappa, V domains shown) VH: AVTLDESGGGLQTPGGALSLVCKGSGFSFSSFNMFWVRQAPGKGLEWVAGIGKDGVPKYGAAVDGRATISKDNGQSTMRLQLNNLRAEDTGTYFCAKAAGGCSYDWCGIYAGDIDTWGHGTEVIVSS VL: ASTQPSSVSANPGETVKITCSGGSGYYYGWYQQKSPGSVPVTVIYNNNNRPSDIPSRFSGSKSGSTGTLTITGVRAEDEAVYYCGGYDNSGTGIFGAGTTLTVLG
stdout: 11
